Reported increase of cells in G2/M-phase values are given for each entry in this list.
Tested on: DanG
Assay: cell cycle analysis (PI staining)
Type: cell-based, human
Conditions: IC90, 24 and 48 h (Figure 19a)
Method: The potent cytotoxicity and the potential to inhibit the proliferation of cancer cells accompanied by DNA damage effects raised the question as to whether cell cycle progression might be affected as a result of treatment with pentathiepins. Cells were harvested by trypsinization, collected in 1.5 mL tubes, and washed twice with PBS by centrifuging for 5 min at 500× g and discarding the supernatant after every step. […]
Provide the reading as a plain figure in %.

CCOc1c2c(c3ccc(C(=O)N4CCOCC4)cn13)SSSSS2	6
CCOc1c2c(c3ccc(C(=O)N4CCCCC4)cn13)SSSSS2	6
CCOc1c2c(c3ccc(C(=O)N4CCN(C(=O)c5ccc(F)cc5)CC4)cn13)SSSSS2	6

Proceed to the following item.
Problem: Specify reported increase of cells in G2/M-phase for the compound shown: `CCOc1c2c(c3ccc(C(=O)N(CC)CC)cn13)SSSSS2`
Result: 6
